- study-system: human DGKζ (Homo sapiens (Human))
- Sequence (Q13574 other isoform, or with tags, fused parts or gaps): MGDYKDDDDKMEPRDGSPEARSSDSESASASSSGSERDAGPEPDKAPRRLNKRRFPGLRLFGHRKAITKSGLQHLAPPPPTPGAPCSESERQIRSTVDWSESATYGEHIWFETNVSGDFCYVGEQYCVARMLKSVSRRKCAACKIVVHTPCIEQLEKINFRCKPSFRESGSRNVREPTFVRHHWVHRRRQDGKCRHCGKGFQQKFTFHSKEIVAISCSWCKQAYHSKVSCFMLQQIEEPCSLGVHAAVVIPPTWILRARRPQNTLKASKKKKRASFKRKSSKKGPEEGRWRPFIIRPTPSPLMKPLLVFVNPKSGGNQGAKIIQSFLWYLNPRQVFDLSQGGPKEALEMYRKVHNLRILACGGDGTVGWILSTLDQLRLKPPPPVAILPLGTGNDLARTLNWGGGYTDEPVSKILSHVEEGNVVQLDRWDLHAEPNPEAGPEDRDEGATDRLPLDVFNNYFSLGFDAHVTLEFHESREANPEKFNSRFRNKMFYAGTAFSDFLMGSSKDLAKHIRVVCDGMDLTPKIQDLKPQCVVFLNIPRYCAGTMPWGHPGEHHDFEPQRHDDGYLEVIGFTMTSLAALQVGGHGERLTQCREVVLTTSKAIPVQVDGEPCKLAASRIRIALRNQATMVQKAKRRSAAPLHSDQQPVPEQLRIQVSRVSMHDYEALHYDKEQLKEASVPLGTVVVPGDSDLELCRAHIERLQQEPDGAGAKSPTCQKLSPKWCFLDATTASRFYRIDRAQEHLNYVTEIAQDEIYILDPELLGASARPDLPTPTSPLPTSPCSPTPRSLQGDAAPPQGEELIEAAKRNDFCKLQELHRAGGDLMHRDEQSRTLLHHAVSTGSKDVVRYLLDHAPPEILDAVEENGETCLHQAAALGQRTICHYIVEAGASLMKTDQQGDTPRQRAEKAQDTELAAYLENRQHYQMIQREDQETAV
- protocol-text: Human DGKζ kinase activity inhibition assay (ADP-Glo)
- Assay type: biochemical
- run-parameters: in vitro human DGKζ kinase activity inhibition assay; read-out: IC50
metric: IC50 (nM)
Lab book: enter the figure in nM, no units written.

Request: Short answer please: IC50, human DGKζ (Homo sapiens (Human)), entry CC(C(N)=O)N(c1nc(N)c(C(=O)c2ccccc2)s1)c1c(F)cc(F)cc1F (racemic) [Example 4]
Result: 833

Request: Short answer please: IC50, human DGKζ (Homo sapiens (Human)), entry CC(C(N)=O)N(c1ccc(F)c(F)c1)c1nc(N)c(C(=O)c2ccncc2)s1 (single isomer, unassigned) [Example 50.2]
Result: 14300

Request: Short answer please: IC50, human DGKζ (Homo sapiens (Human)), entry CC(C(N)=O)N(c1ccc(OC(F)(F)F)c(Cl)c1)c1nc(N)c(C(=O)c2ccc(OC(F)F)nc2)s1 (racemic) [Example 226]
Result: 87

Request: Short answer please: IC50, human DGKζ (Homo sapiens (Human)), entry CCC(C(N)=O)N(c1ccc(F)cc1)c1nc(N)c(C(=O)c2ccccc2)s1 (racemic) [Example 68]
Result: 457

Request: Short answer please: IC50, human DGKζ (Homo sapiens (Human)), entry CC(C(N)=O)N(c1ccc(Cl)cc1)c1nc(N)c(C(=O)c2ccc(Cl)cc2)s1 (single isomer, unassigned) [Example 41.1]
Result: 2930

Request: Short answer please: IC50, human DGKζ (Homo sapiens (Human)), entry COc1ccc(C(=O)c2sc(N(c3ccc(F)cc3)C(C)C(N)=O)nc2C)cc1 (racemic) [Example 176]
Result: 91

Request: Short answer please: IC50, human DGKζ (Homo sapiens (Human)), entry CC(C(N)=O)N(c1ccc(F)c(F)c1)c1nc(N)c(C(=O)c2ccncc2)s1 (racemic) [Example 50]
Result: 378

Request: Short answer please: IC50, human DGKζ (Homo sapiens (Human)), entry CC(C(N)=O)N(c1ccc(F)cc1)c1nc(N)c(C(=O)c2ccc(OCC(=O)Nc3ccc4ncccc4c3)cc2)s1 (racemic) [Example 108]
Result: 19.4

Request: Short answer please: IC50, human DGKζ (Homo sapiens (Human)), entry CC(C(N)=O)N(c1ccc(F)cc1)c1nc(N)c(C(=O)c2ccc(C(=O)NC3CC3)cc2)s1 (racemic) [Example 266]
Result: 287

Request: Short answer please: IC50, human DGKζ (Homo sapiens (Human)), entry COc1ccc(N(c2nc(N)c(C(=O)c3ccc(OC(F)F)cc3)s2)C(C)C(N)=O)cc1 (single isomer, unassigned) [Example 174.2]
Result: 3790

Request: Short answer please: IC50, human DGKζ (Homo sapiens (Human)), entry CC(C(N)=O)N(c1nc(N)c(C(=O)c2ccccc2)s1)c1ccc(F)cc1Cl (racemic) [Example 11]
Result: 406

Request: Short answer please: IC50, human DGKζ (Homo sapiens (Human)), entry CC(C(N)=O)N(c1ccc2c(c1)OC(F)(F)O2)c1nc(N)c(C(=O)c2ccncc2)s1 (racemic) [Example 215]
Result: 279

Request: Short answer please: IC50, human DGKζ (Homo sapiens (Human)), entry CC(C(N)=O)N(c1ccc(OC(F)F)nc1)c1nc(N)c(C(=O)c2ccc(OC(F)F)cc2)s1 (racemic) [Example 254]
Result: 32

Request: Short answer please: IC50, human DGKζ (Homo sapiens (Human)), entry CC(C(N)=O)N(c1cccc(F)c1)c1nc(N)c(C(=O)c2ccccc2)s1 (single isomer, unassigned) [Example 74.1]
Result: 17100

Request: Short answer please: IC50, human DGKζ (Homo sapiens (Human)), entry CC(C(N)=O)N(c1ccc(F)cc1)c1nc(N)c(C(=O)c2ccc(C#N)cc2)s1 (single isomer, unassigned) [Example 33.1]
Result: 8610

Request: Short answer please: IC50, human DGKζ (Homo sapiens (Human)), entry CC(C(N)=O)N(c1ccc(Br)cc1)c1nc(N)c(C(=O)c2ccccc2)s1 (racemic) [Example 193]
Result: 35

Request: Short answer please: IC50, human DGKζ (Homo sapiens (Human)), entry CC(C(N)=O)N(c1ccc(F)cc1)c1nc(N)c(C(=O)c2ccc(OCc3ccccc3)cc2)s1 (racemic) [Example 170]
Result: 7
